Test system: MTOR;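 further: KINOMEscan kinase panel screen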
Conditions: concentration: 1 μM, replicates: in singlicate; n = 1
Measure Name: %Inh
The reply must contain the numeric value and, after it, the unit.

INSERT INTO measurements (compound, measure_name, readout_value) VALUES
  ('O=C(NCCNc1ccnc(Nc2ccc(F)cc2)n1)c1cc2ccccc2s1', '%Inh', '8%');

Requested read-out: %Inh. Entry: "CCCCCc1nc2c(N)ncnc2n1CCCCC"
0%

Requested read-out: %Inh. Entry: "Nc1nc(-c2ccc3c(N)n[nH]c3c2)cc(N2CCCC2)n1"
0%

Requested read-out: %Inh. Entry: Cc1c(Cn2c(C)nn3c(=O)cc(N4CCOC(C)C4)nc23)cccc1C(F)(F)F (stereo not drawn)
28%

Reference for the values: paper PMC5540273
